Data origin, for the record: patent US20080160035A1

Target: T1, hIL-4R on cells (STAT6-transfected HEK293, TF1, TF1/A12) (human, UniProt P24394 26-825)
T1 sequence (looked up): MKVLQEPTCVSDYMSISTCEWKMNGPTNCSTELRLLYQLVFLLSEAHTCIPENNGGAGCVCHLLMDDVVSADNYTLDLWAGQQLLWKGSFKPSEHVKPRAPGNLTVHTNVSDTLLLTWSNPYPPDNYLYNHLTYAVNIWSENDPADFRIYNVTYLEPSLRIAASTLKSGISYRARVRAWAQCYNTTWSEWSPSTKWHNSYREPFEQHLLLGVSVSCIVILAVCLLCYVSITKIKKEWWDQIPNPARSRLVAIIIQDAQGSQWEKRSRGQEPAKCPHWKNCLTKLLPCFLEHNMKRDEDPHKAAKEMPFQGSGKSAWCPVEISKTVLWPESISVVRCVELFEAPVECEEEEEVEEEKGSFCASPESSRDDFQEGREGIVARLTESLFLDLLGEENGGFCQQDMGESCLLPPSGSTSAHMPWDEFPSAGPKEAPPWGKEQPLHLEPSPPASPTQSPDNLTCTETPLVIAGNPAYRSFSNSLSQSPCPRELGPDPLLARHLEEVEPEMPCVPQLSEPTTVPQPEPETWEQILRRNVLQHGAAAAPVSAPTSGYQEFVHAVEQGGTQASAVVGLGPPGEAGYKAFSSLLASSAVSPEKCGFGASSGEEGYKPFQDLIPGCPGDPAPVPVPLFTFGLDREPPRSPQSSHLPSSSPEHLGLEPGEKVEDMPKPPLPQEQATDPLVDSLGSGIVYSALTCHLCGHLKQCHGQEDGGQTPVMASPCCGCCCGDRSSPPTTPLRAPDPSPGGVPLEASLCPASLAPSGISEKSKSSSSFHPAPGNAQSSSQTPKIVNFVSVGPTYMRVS
Assay: cell-based or functional assay
Quantity Measured: TF1/A12 Bioassay IC50 (proliferation, 20 pM hIL-4)
Please answer using the number first and the unit second.

Exercise: Recorded TF1/A12 Bioassay IC50 (proliferation, 20 pM hIL-4) for VX 4E7-9 (antibody, V domains shown, 387/389; Apparently tested with mouse constant region (anti-mouse IgG capture/detection)) VH: QVQLVQSGAEVKKPGASVKVSCKASGYTFTNYGISWVRQAPGQGLEWMGWISVYNGKTNYAQKLQGRVTMTTDTSTTTAYMEMRSLRSDDTAVYYCARGSGYDLDYWGQGTLVSVSS VL: AIQMTQSPSSLSASVGDRVTITCRASQGIRNALGWYQQKPGKAPKLLIYAASSLQSGVPSRFSGSGSGTDFTLTFSSLQPEDFATYYCLQDFNYPYTFGQGTKLEIK , please?
Solution: 10 nM

Exercise: Recorded TF1/A12 Bioassay IC50 (proliferation, 20 pM hIL-4) for VAB 6C10-14 (antibody, V domains shown, Apparently tested with mouse constant region (anti-mouse IgG capture/detection)) VH: QVQLVQSGAEVKKPGASVKVSCKASGYTFTNYGLTWVRQAPGRGLEWMGWISVYNGNTNYAQTLKGRVTMTTDTSTSTAYMELKSLRSDDTAVYYCARGSGYDFDYWGQGTLVTVSS VL: AIQMTQSPSSLSASVGDRVAITCRASQDIRNDLGWYQQKPGKAPKLLIHTASSLQSGVPSRFSGSGSGTDFTLTISNLQPEDFATYYCLQDNSYPYTFGQGTKLEIN , please?
Solution: 23 nM

Exercise: Recorded TF1/A12 Bioassay IC50 (proliferation, 20 pM hIL-4) for VAK5H4-4 (antibody, V domains shown, Apparently tested with mouse constant region (anti-mouse IgG capture/detection)) VH: QVRLVESGGGVVQPGGSLRLSCVASGFTFRSYGMHWVRQAPGRGLEWVAVISYDGSKTFYVDSVKVRFTISRDNSKNTLYLEMNSLRVDDTAVYFCVKEGRSGSWFDPWGQGTLVAVSS VL: DIQMTQSPSSLSASVGDRVTITCRASQAINNFLAWFQQKPGKTPNSLIFATSSLQSGVPSRFSAGGSGTDFTLTISSLQPEDFATYYCQQYNSHPWTFGQGTKVEIK , please?
Solution: 0.182 nM
